Sourced from ChEMBL document CHEMBL4270623

Target or system: Histone acetyltransferase KAT2A (Homo sapiens, UniProt Q92830)
Sequence (Q92830 whole entry): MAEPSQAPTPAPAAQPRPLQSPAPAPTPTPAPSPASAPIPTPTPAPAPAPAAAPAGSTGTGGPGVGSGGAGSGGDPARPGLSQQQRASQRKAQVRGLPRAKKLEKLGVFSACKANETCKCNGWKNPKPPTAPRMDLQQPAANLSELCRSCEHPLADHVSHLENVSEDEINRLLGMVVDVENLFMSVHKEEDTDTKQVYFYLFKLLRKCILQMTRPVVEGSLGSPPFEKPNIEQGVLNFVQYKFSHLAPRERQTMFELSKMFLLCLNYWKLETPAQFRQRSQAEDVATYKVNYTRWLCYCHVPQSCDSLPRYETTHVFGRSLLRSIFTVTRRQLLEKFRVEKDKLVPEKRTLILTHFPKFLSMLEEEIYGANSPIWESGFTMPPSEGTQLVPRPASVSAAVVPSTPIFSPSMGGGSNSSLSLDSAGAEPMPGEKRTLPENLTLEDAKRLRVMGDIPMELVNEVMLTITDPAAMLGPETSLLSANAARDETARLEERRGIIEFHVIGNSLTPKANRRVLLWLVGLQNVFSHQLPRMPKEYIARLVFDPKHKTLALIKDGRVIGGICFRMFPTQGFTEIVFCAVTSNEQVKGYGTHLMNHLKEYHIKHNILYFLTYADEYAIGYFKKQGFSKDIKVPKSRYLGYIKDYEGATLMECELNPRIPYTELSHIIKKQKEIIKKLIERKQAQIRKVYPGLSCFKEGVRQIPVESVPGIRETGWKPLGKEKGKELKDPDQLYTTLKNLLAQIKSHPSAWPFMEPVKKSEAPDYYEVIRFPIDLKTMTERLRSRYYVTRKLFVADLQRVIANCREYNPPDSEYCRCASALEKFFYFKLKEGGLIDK
Method notes: Inhibition of recombinant human GST-tagged Gcn5 using H3 as substrate in presence of [3H]-acetyl-CoA by phosphor image analysis
pIC50: −log10 of the molar value.

Molecule smiles: C=C1C(=O)O[C@H](CCC)[C@H]1C(=O)O
pIC50: 4.00

###

Target or system: UniProt Q99873
Sequence (Q99873 whole entry): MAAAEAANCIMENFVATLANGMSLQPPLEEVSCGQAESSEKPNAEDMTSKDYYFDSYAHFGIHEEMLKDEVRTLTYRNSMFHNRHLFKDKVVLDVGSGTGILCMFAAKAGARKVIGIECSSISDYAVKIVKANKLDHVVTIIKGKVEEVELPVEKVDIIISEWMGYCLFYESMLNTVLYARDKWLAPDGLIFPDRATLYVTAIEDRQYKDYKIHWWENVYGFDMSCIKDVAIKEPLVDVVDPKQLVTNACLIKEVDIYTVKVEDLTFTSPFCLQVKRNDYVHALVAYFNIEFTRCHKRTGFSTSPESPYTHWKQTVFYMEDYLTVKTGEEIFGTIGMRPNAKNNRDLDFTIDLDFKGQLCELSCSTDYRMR
Method notes: Inhibition of PRMT1 (unknown origin)
Readout: IC50

Molecule smiles: CCN(CC)S(=O)(=O)c1ccc(/C=C/c2nc3ccccc3s2)cc1
Measured value: > 100 µM

###

Target or system: Histone acetyltransferase KAT8 (Homo sapiens) (UniProt Q9H7Z6)
Method notes: Inhibition of human His-tagged MOF at 50 uM using histone H4 substrate by radioactive acetylation assay relative to control

Molecule smiles: O=S(=O)(Nc1ccccc1)c1ccc(/C=C/c2nc3ccccc3s2)cc1
inhibition / %: 13
//
Molecule smiles: CCN(CC)S(=O)(=O)c1ccc(/C=C/c2nc3cc(OC)ccc3s2)cc1
inhibition / %: 14
//
Molecule smiles: CCCCCCCc1ccc(CCc2cccc(O)c2C(=O)O)cc1
inhibition / %: 100
//
Molecule smiles: CN(C)S(=O)(=O)c1ccc(/C=C/c2nc3ccccc3s2)cc1
inhibition / %: 9
//
Molecule smiles: CCN(CC)S(=O)(=O)c1ccc(/C=C/c2nc3cc(C)ccc3s2)cc1
inhibition / %: 0
//
Molecule smiles: CCN(CC)S(=O)(=O)c1ccc(/C=C/c2nc3cc(C)c(C)cc3s2)cc1
inhibition / %: 95
//
Molecule smiles: COc1ccc(CNS(=O)(=O)c2ccc(/C=C/c3nc4ccccc4s3)cc2)cc1
inhibition / %: 0

###

Target chain: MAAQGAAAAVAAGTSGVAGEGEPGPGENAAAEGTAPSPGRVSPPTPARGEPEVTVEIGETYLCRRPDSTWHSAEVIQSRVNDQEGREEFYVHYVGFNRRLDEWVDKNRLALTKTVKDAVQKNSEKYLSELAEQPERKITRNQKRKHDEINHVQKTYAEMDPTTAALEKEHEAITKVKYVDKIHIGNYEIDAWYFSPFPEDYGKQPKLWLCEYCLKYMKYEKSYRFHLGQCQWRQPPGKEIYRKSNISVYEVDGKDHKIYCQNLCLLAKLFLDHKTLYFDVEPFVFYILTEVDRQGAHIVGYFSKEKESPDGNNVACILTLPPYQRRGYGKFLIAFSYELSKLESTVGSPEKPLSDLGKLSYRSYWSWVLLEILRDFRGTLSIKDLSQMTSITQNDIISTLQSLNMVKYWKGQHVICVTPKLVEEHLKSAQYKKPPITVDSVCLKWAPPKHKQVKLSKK

Molecule smiles: CCN(CC)S(=O)(=O)c1ccc(/C=C/c2nc3cc(F)ccc3s2)cc1
Result unit: µM
Kd: 19

###

Target or system: DNA (cytosine-5)-methyltransferase 1 (Homo sapiens)
Sequence (P26358 whole entry): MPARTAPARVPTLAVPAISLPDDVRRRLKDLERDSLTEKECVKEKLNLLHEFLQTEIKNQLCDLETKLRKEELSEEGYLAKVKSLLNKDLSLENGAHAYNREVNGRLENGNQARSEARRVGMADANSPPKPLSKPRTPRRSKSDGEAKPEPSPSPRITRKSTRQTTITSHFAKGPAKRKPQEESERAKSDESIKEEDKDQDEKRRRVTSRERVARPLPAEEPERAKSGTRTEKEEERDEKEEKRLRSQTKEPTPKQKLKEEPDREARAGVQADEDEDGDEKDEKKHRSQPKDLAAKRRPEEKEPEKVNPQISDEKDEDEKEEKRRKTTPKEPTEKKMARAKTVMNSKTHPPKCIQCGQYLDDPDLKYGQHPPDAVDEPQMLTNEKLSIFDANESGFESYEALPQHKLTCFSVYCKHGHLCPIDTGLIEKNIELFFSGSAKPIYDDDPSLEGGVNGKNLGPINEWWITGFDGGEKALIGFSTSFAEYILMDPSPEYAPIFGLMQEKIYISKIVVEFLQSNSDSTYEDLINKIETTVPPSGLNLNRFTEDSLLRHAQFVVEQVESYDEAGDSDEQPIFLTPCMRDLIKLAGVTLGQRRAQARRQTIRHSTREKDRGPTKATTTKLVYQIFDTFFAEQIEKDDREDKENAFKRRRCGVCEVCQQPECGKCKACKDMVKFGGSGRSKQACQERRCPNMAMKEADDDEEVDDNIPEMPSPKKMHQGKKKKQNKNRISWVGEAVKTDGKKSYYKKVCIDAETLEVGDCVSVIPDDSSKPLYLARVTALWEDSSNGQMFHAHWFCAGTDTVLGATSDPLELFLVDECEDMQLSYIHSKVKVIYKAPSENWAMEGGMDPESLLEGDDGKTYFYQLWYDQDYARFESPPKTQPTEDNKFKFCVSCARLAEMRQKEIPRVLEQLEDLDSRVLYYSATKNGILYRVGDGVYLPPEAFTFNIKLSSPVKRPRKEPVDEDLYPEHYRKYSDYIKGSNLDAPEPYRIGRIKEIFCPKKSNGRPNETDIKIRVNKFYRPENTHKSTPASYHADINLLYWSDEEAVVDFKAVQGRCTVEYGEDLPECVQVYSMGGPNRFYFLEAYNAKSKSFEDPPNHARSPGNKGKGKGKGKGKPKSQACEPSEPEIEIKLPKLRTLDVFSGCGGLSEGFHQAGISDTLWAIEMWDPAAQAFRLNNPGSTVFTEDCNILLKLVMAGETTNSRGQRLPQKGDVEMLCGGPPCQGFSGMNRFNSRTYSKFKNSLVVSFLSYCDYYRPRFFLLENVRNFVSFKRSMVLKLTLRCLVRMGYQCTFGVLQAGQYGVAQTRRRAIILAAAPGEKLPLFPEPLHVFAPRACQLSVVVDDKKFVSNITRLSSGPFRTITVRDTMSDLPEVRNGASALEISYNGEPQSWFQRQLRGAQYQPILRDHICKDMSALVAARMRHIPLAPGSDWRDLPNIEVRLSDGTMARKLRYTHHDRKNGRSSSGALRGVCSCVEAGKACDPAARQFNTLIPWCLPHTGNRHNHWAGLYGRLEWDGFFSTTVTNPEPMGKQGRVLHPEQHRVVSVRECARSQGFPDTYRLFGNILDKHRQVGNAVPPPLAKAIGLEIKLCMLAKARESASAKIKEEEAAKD
pIC50: −log10 of the molar value.
Readout: pIC50

Molecule smiles: CCN(CC)S(=O)(=O)c1ccc(/C=C/c2nc3ccccc3s2)cc1
Measured value: < 4.00

###

Target or system: Histone acetyltransferase KAT8 (Homo sapiens)
Sequence (whole entry): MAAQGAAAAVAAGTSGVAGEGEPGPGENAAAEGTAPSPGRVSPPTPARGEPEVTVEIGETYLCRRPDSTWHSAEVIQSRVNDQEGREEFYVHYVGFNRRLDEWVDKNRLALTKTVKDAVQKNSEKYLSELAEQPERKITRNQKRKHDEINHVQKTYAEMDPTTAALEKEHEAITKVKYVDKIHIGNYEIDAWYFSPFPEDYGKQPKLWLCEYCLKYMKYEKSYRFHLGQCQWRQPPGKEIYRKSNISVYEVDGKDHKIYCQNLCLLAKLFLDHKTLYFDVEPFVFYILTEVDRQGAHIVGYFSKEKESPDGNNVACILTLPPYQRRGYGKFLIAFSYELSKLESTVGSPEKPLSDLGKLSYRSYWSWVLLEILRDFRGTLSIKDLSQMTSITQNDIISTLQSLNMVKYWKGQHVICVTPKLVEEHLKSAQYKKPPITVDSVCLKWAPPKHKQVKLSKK
Method notes: Inhibition of human His-tagged MOF at 100 uM using histone H4 substrate by radioactive acetylation assay relative to control
Assign class by inhibition: not lower than 20% means MET; lower than 20% means NOT MET.

Molecule smiles: CCN(CC)S(=O)(=O)c1ccc(/C=C/c2nc3cc(OC)ccc3s2)cc1
Target or system: Histone acetyltransferase KAT8 (Homo sapiens)
Assigned class: NOT MET
//
Molecule smiles: CCN(CC)S(=O)(=O)c1ccc(/C=C/c2nc3ccccc3s2)cc1F
Target or system: Histone acetyltransferase KAT8 (Homo sapiens)
Assigned class: NOT MET
//
Molecule smiles: CCN(CC)S(=O)(=O)c1ccc(/C=C/c2nc3cc(C)c(C)cc3s2)cc1
Target or system: Histone acetyltransferase KAT8 (Homo sapiens)
Assigned class: MET
//
Molecule smiles: CCN(CC)S(=O)(=O)c1ccc(/C=C/c2nc3ccccc3s2)cc1C
Target or system: Histone acetyltransferase KAT8 (Homo sapiens)
Assigned class: MET
//
Molecule smiles: COc1ccc(CNS(=O)(=O)c2ccc(/C=C/c3nc4ccccc4s3)cc2)cc1
Target or system: Histone acetyltransferase KAT8 (Homo sapiens)
Assigned class: MET
//
Molecule smiles: CN(C)S(=O)(=O)c1ccc(/C=C/c2nc3ccccc3s2)cc1
Target or system: Histone acetyltransferase KAT8 (Homo sapiens)
Assigned class: NOT MET
//
Molecule smiles: CCN(CC)S(=O)(=O)c1ccc(/C=C/c2nc3ccc(Br)cc3s2)cc1
Target or system: Histone acetyltransferase KAT8 (Homo sapiens)
Assigned class: MET

###

molecules and their reported pIC50
Target or system: Histone acetyltransferase KAT8 (Homo sapiens, UniProt Q9H7Z6)
Method notes: Inhibition of human His-tagged MOF preincubated for 10 mins followed by biotin-labeled H4K16 substrate addition measured after 30 mins in presence of acetyl-CoA by alphascreen assay
pIC50: −log10 of the molar value.

Molecule smiles: Oc1cc(O)c2sc3nc(-c4cccs4)cc(-c4cccs4)c3c2n1
pIC50: 4.64
--
Molecule smiles: CCCCCCCc1ccc(CCc2cccc(O)c2C(=O)O)cc1
pIC50: 4.57
--
Molecule smiles: N#Cc1c(-c2ccccc2)cc(-c2cccs2)nc1SCC(=O)NCC(=O)O
pIC50: 4.13
--
Molecule smiles: Cc1ccc(-c2cc(C(=O)O)c3cc4c(C(=O)O)cc(-c5ccc(C)o5)nc4cc3n2)o1
pIC50: 4.77

###

Target or system: Histone acetyltransferase KAT8 (Homo sapiens, UniProt Q9H7Z6)
Method notes: Inhibition of human His-tagged MOF using histone H4 substrate by radioactive acetylation assay
pIC50: −log10 of the molar value.
Assign class by pIC50: not lower than 5 means T; lower than 5 means F.

Molecule smiles: CCN(CC)S(=O)(=O)c1ccc(/C=C/c2nc3cc(F)ccc3s2)cc1
Assigned class: F

Molecule smiles: CCN(CC)S(=O)(=O)c1ccc(/C=C/c2nc3cc(Br)ccc3s2)cc1
Assigned class: F

Molecule smiles: CCCCCCCc1ccc(CCc2cccc(O)c2C(=O)O)cc1
Assigned class: F

Molecule smiles: CCN(CC)S(=O)(=O)c1ccc(/C=C/c2nc3ccccc3s2)cc1
Assigned class: T

Molecule smiles: CCN(CC)S(=O)(=O)c1ccc(/C=C/c2nc3cc(Cl)ccc3s2)cc1
Assigned class: F

###

Target or system: Histone acetyltransferase KAT8 (Homo sapiens)
Method notes: Inhibition of human His-tagged MOF at 50 uM using histone H4 substrate by radioactive acetylation assay relative to control
molecules and their reported inhibition
Readout: inhibition (%)

Molecule smiles: O=S(=O)(NCc1ccccc1)c1ccc(/C=C/c2nc3ccccc3s2)cc1
Target or system: Histone acetyltransferase KAT8 (Homo sapiens)
Readout: inhibition
Result unit: %
Measured value: 1
--
Molecule smiles: CCN(CC)S(=O)(=O)c1ccc(/C=C/c2nc3ccccc3s2)cc1F
Target or system: Histone acetyltransferase KAT8 (Homo sapiens)
Readout: inhibition
Result unit: %
Measured value: 16
--
Molecule smiles: CCN(CC)S(=O)(=O)c1ccc(/C=C/c2nc3ccccc3s2)cc1C
Target or system: Histone acetyltransferase KAT8 (Homo sapiens)
Readout: inhibition
Result unit: %
Measured value: 28
--
Molecule smiles: CCN(CC)S(=O)(=O)c1ccc(/C=C/c2nc3ccc(Br)cc3s2)cc1
Target or system: Histone acetyltransferase KAT8 (Homo sapiens)
Readout: inhibition
Result unit: %
Measured value: 5
--
Molecule smiles: CCN(CC)S(=O)(=O)c1ccc(/C=C/c2nc3cc(F)ccc3s2)cc1
Target or system: Histone acetyltransferase KAT8 (Homo sapiens)
Readout: inhibition
Result unit: %
Measured value: 53
--
Molecule smiles: CCN(CC)S(=O)(=O)c1ccc(/C=C/c2nc3cc(Br)ccc3s2)cc1
Target or system: Histone acetyltransferase KAT8 (Homo sapiens)
Readout: inhibition
Result unit: %
Measured value: 57
--
Molecule smiles: CCN(CC)S(=O)(=O)c1ccc(/C=C/c2nc3ccccc3s2)cc1Cl
Target or system: Histone acetyltransferase KAT8 (Homo sapiens)
Readout: inhibition
Result unit: %
Measured value: 7
--
Molecule smiles: CCN(CC)S(=O)(=O)c1ccc(/C=C/c2nc3ccccc3s2)cc1
Target or system: Histone acetyltransferase KAT8 (Homo sapiens)
Readout: inhibition
Result unit: %
Measured value: 93
--
Molecule smiles: Cc1ccc(CNS(=O)(=O)c2ccc(/C=C/c3nc4ccccc4s3)cc2)cc1
Target or system: Histone acetyltransferase KAT8 (Homo sapiens)
Readout: inhibition
Result unit: %
Measured value: 17
--
Molecule smiles: CCN(CC)S(=O)(=O)c1ccc(/C=C/c2nc3cc(Cl)ccc3s2)cc1
Target or system: Histone acetyltransferase KAT8 (Homo sapiens)
Readout: inhibition
Result unit: %
Measured value: 64
